System: OVCAR-3
assay.protocol: NCI tumour cell line growth inhibition, 48 h
Active and inactive are the calls of the source. Rule as the data show it: active = GI50 up to about 1.1 µM and inactive = higher.
// classify into yes (1) (active), no (0) (inactive)

compound | system.name | class.assignment
CC1CC[C@@H](C(C)C)[C@H](Oc2nnc(C3OC(CO)C(O)C3O)o2)C1 (some centres not stated) | OVCAR-3 | no (0)
CC(=O)Nc1[nH]c(=O)[nH]c(=O)c1N(C(C)=O)C(C)=O | OVCAR-3 | no (0)
CCn1c(-c2cc(OC)cc(OC)c2)nc2c1C(=O)c1ccccc1C2=O | OVCAR-3 | no (0)
CN(C)Cc1cc(C(C)(C)C)ccc1-c1ccc(C(C)(C)C)cc1CN(C)C | OVCAR-3 | no (0)
Nc1c(-c2ccc(-c3c(N)[n+]([O-])c4ccccc4[n+]3[O-])cc2)[n+]([O-])c2ccccc2[n+]1[O-] | OVCAR-3 | no (0)

In: Please indicate how the test categorized CN(C)c1ccc(/C=C2/SC(=S)NC2=O)cc1 .
Out: no (0)

In: Please indicate how the test categorized N#Cc1nc2cc(Cl)ccc2nc1N1CCN(c2ccc([N+](=O)[O-])cc2)CC1 .
Out: no (0)

In: Please indicate how the test categorized CCOC(=O)C(C)(Cc1ccc(O)cn1)NC(=O)c1ccccc1 (configuration not stated) .
Out: no (0)

In: Please indicate how the test categorized COC(=O)c1cc(C)ccc1C1CN=NC12Cc1c(C)cc(C)cc1C2=O (configuration not stated) .
Out: no (0)

In: Please indicate how the test categorized CN1C(=O)CC(c2cccc(C3CC(=O)N(C)C3=O)n2)C1=O (configuration not stated) .
Out: no (0)

In: Please indicate how the test categorized O=c1cc(/N=N\c2ccc(Br)cc2)[nH]c(=S)[nH]1 .
Out: no (0)

In: Please indicate how the test categorized O=C(O)CCC(O)=C1S(=O)(=O)OCCOS1(=O)=O .
Out: no (0)

In: Please indicate how the test categorized Cc1nc(N/N=C/c2ccccc2Cl)[nH]c(=O)c1CCO .
Out: no (0)

* * *

Tested on: OVCAR-5
assay.protocol: NCI tumour cell line growth inhibition, 48 h
Active and inactive are the calls of the source. Cut-off read from the data, not from the text of the source: active = GI50 up to about 1.1 µM and inactive = higher.
measurement.kind: GI50

compound | GI50
COC(=O)c1cc(C)ccc1C1CN=NC12Cc1c(C)cc(C)cc1C2=O (stereo not given) | 29.4 µM (inactive)
Nc1c2c(nc3ccccc13)-c1ccccc1CCC2 | 13 µM (inactive)
CCCCc1ccc(Nc2nc(Cl)c3c(ncn3COCCOC(C)=O)n2)cc1 | 18.5 µM (inactive)
CCOC(=O)C(Oc1ccc(OC)c2c1C(=O)CCC2)c1ccccc1 (stereo not given) | > 100 µM (inactive)

In: Dear colleague, please send me the reported GI50 for CCOC(=O)C(C(=S)SC)c1nn2c(=O)cc(C)nc2s1 (stereo not given) when you can.
Out: 20.8 µM (inactive)

In: Dear colleague, please send me the reported GI50 for CN1C(=O)CC(c2cccc(C3CC(=O)N(C)C3=O)n2)C1=O (stereo not given) when you can.
Out: > 100 µM (inactive)

In: Dear colleague, please send me the reported GI50 for CCN(CC)CCNC(=O)c1cc2cc(NC(=O)c3cc4cc([N+](=O)[O-])ccc4[nH]3)ccc2[nH]1 when you can.
Out: 69.7 µM (inactive)

In: Dear colleague, please send me the reported GI50 for O=C(NC1C/C(=N/O)c2c(Br)sc(Br)c21)C(F)(F)F (stereo not given) when you can.
Out: > 100 µM (inactive)

In: Dear colleague, please send me the reported GI50 for COc1ccc(NS(=O)(=O)c2ccc(/N=C3\C=C(Nc4ccc(S(=O)(=O)Nc5ccc(OC)nn5)cc4)C(=O)c4ccccc43)cc2)nn1 when you can.
Out: 19.1 µM (inactive)

In: Dear colleague, please send me the reported GI50 for FC(F)(F)c1ccc2nc(Nc3ccc(Cl)c(Cl)c3)c(-c3ccccc3)nc2c1 when you can.
Out: > 100 µM (inactive)

In: Dear colleague, please send me the reported GI50 for O=c1cc(-c2ccccc2)c2ccc(O)c(CN(CCCl)CCCl)c2o1 when you can.
Out: 17.8 µM (inactive)

Provenance of the data: ChEMBL document CHEMBL1201862
